Target: JAK1 (Homo sapiens)
Sequence (P23458 whole entry): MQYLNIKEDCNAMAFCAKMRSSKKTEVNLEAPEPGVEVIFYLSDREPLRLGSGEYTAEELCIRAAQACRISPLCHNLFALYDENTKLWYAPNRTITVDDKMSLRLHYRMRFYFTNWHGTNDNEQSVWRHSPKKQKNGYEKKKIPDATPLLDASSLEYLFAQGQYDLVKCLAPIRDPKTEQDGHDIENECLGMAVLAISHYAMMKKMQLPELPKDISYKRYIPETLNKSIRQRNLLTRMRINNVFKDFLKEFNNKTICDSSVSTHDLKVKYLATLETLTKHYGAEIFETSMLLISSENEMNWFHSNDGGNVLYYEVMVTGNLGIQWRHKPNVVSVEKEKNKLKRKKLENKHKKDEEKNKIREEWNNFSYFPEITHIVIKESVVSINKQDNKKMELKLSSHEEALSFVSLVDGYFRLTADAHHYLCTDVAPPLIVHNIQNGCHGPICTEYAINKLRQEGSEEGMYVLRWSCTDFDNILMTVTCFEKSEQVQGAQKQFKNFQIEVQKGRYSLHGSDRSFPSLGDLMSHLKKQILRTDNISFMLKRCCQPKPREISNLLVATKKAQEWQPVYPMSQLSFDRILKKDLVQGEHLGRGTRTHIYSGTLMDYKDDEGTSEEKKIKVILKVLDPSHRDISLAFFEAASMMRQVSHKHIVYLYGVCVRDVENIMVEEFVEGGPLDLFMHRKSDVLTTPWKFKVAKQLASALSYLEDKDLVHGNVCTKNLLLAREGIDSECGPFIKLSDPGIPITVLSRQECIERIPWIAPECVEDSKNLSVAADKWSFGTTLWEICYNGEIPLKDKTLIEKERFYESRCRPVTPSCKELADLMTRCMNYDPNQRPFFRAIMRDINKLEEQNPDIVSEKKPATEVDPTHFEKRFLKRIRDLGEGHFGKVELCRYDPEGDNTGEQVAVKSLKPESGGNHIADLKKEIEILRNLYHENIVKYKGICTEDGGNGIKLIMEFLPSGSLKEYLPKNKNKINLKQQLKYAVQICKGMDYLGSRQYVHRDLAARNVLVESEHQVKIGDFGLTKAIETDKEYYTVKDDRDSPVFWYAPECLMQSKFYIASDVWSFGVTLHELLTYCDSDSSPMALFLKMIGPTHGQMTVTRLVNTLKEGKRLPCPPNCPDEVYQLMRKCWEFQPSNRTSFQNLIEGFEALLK
Assay: JAK kinase inhibition assay (EZ Reader, peptide substrate phosphorylation) - JAK1
Type: biochemical
Conditions: JAK1 kinase 20 nM; 8 concentration points, max 10 μM
Excerpt: Assay for Identifying Inhibitory Effects of Compounds on JAK Kinases Janus kinases (JAK), including JAK1, JAK2, JAK3 and Tyk2, transduce a cytokine-mediated signal through a JAK-STAT pathway. The kinases are 120-140 kDa in size and have 7 determined homology regions: JH1 to JH7. […] EZ Reader from PerkinElmer can be used to detect the phosphorylation of polypeptide substrates catalyzed by kinases. […] S4.7. The microplates were placed on EZ Reader for reading. […]
observed.property: IC50

The following molecules have reported results that may help.
molecule: Cc1cc(-c2ccnc(Nc3cnn(C)c3)n2)ccc1C(=O)NCC#N [TDM-180784]
target.system: JAK1 (Homo sapiens)
IC50: 0.1 to 1 µM
--
molecule: CCOCCS(=O)(=O)Nc1ccc(-c2ccnc(Nc3cnn(C)c3)n2)cc1
target.system: JAK1 (Homo sapiens)
IC50: < 0.1 µM
--
molecule: CCCCS(=O)(=O)Nc1ccc(-c2ccnc(Nc3cnn(C)c3)n2)cc1
target.system: JAK1 (Homo sapiens)
IC50: 0.1 to 1 µM
--
molecule: Cc1cc(-c2ccnc(Nc3cnn(C)c3)n2)cnc1NC(=O)CC(F)(F)F
target.system: JAK1 (Homo sapiens)
IC50: 0.1 to 1 µM
--
molecule: CCS(=O)(=O)Nc1ncc(-c2ccnc(Nc3cnn(C)c3)n2)cn1
target.system: JAK1 (Homo sapiens)
IC50: ≥ 10 µM

I am curious: what IC50 value has been reported for Cn1cc(Nc2nccc(-c3ccc(NC(=O)CC(F)(F)F)c4[nH]ncc34)n2)cn1 ? < 0.1 µM

Requested read-out: IC50. Entry: Cn1cc(Nc2nccc(-c3cnc(NC(=O)CC(F)(F)F)nc3)n2)cn1 0.1 to 1 µM

Tell me the measured IC50 of COCC(=O)Nc1ccc(-c2ccnc(Nc3cnn(C)c3)n2)cn1 , please. 1 to 10 µM

Value lookup for IC50; key = Cn1cc(Nc2nccc(-c3ccc(C(=O)NCC(F)(F)F)nc3)n2)cn1 0.1 to 1 µM

----------
target: JAK1 (Homo sapiens); assay: JAK kinase inhibition assay (EZ Reader, peptide substrate phosphorylation) - JAK1; format: biochemical; details: JAK1 kinase 20 nM; 8 concentration points, max 10 μM
molecules and their reported IC50

These recorded examples may help you get a feel for the data.
molecule: Cn1cc(Nc2nccc(-c3ccc(NC(=O)CC(F)(F)F)cc3)n2)cn1 [TDM-180754]
target.system: JAK1 (Homo sapiens)
IC50: < 0.1 µM
--
molecule: Cn1cc(Nc2nccc(-c3ccc(NC(=O)[C@@H]4CC4(F)F)cc3)n2)cn1 [TDM-180934]
target.system: JAK1 (Homo sapiens)
IC50: < 0.1 µM
--
molecule: Cn1cc(Nc2nccc(-c3ccc(NC(=O)C4CC4(F)F)cc3)n2)cn1 (stereo not drawn) [TDM-180757]
target.system: JAK1 (Homo sapiens)
IC50: < 0.1 µM
--
molecule: CCCS(=O)(=O)Nc1ccc(-c2ccnc(Nc3cnn(C)c3)n2)cn1 [TDM-180901]
target.system: JAK1 (Homo sapiens)
IC50: 1 to 10 µM
--
molecule: COCC(=O)Nc1ccc(-c2ccnc(Nc3cnn(C)c3)n2)cc1 [TDM-180759]
target.system: JAK1 (Homo sapiens)
IC50: 1 to 10 µM
--
molecule: Cn1cc(Nc2nccc(-c3ccc(NC(=O)CO)nc3)n2)cn1 [TDM-180806]
target.system: JAK1 (Homo sapiens)
IC50: 1 to 10 µM
--
molecule: CN1CCN(Cc2ccc(-c3ccnc(Nc4cnn(C)c4)n3)cc2)CC1 [TDM-180788]
target.system: JAK1 (Homo sapiens)
IC50: 1 to 10 µM
--
molecule: Cc1cc(-c2ccnc(Nc3cnn(C)c3)n2)cnc1NC(=O)C1CC1 [TDM-180910]
target.system: JAK1 (Homo sapiens)
IC50: 1 to 10 µM

Then this molecule:
Item under review: Cn1cc(Nc2nccc(-c3ccc(NS(=O)(=O)Cc4ccccc4)cc3)n2)cn1 [TDM-180820] . Reported IC50? < 0.1 µM
